- protocol: Cell viability assay (CellTiter 96 / MTT), MDA-MB-231
- applied conditions: human, MDA-MB-231, GFP-HER2-BM, MCF-7 and MCF-10 cells
observed property: viability at 24 h, 5 µM

Qu. Recall and state the measured viability at 24 h, 5 µM for CCn1c2ccccc2c2cc(-n3nncc3-c3ccccc3)ccc21 [I-1] .
Ans. ~75%
